Literature Ki values, system: D(3) dopamine receptor (Homo sapiens, UniProt P35462).
Sequence (P35462 whole entry): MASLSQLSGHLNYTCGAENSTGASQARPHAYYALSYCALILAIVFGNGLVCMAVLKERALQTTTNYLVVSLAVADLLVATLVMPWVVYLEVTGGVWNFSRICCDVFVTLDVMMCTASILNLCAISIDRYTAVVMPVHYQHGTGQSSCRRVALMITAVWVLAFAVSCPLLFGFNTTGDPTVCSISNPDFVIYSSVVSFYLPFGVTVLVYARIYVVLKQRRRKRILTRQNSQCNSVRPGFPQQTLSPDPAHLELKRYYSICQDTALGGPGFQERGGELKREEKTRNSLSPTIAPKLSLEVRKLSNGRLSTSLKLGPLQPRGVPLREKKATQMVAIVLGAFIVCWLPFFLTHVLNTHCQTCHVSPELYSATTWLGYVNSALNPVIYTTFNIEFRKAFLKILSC
quantity kind: Ki (nM)

• CCCN1CCc2cccc3c2C1Cc1cccc(OCc2cn(CCCCN4CCN(c5ccccc5OC)CC4)nn2)c1-3 (racemic) = 2.67
• O=C(NCCCCN1CCO[C@@H]2c3ccccc3OC[C@H]21)C1CCCCC1 (racemic) = 63.8
• COc1cc(CN2CCN(c3ccccc3OC)CC2)ccc1OCCF = 1100
• Clc1ccc(N2CCN(Cc3cnn4c(N5CCN(Cc6ccccc6)CC5)cccc34)CC2)cc1 = 410
• CCc1cc(Cl)c(OC)c(C(=O)NC[C@@H]2C[C@@H](OCCCCNC(=O)c3cc4ccccc4[nH]3)CN2)c1O = 0.797
• Fc1ccc(COC2CCN(Cc3ccc4[nH]cnc4c3)CC2)cc1F = 4080
• COc1ccccc1N1CCN(C2CC3CC(N4CCN(c5ccccc5OC)CC4)CC3C2)CC1 (stereo not given) = 700
• CC(=O)c1ccc(/C=C/C(=O)NCCCCN2CCc3ccc(OS(=O)(=O)C(F)(F)F)cc3C2)cc1 = 3.98
• O=C(CCCCCCCCCCC(=O)OC1(c2ccc(Cl)cc2)CCN(CCCC(=O)c2ccc(F)cc2)CC1)OC1(c2ccc(Cl)cc2)CCN(CCCC(=O)c2ccc(F)cc2)CC1 = 210
• Sc1nc2c(OCCNCc3ccccc3)cc(Cl)cc2[nH]1 = 12.2
• O=C(NCCCCN1CCN(c2cccc(Cl)c2)CC1)c1cc2ccccc2cn1 = 0.27
• COc1cccc(/C=C/C(=O)NCCCCN2CCc3ccc(OS(=O)(=O)C(F)(F)F)cc3C2)c1 = 3.16
• CS(=O)(=O)c1ccc2c(c1)CCN(CC[C@H]1CC[C@H](NC(=O)/C=C/c3c(F)cccc3F)CC1)CC2 = 2.51
• FC(F)(F)c1nc2c(OCCNCc3ccccc3)cc(Cl)cc2[nH]1 = 41.8
• N#Cc1ccc2c(c1)C1CN(Cc3ccc(F)cc3)CC1CO2 (stereo not given) = 7.94
• CS(=O)(=O)Oc1ccc2c(c1)CCN(CC[C@H]1CC[C@H](NC(=O)c3cccc4ncccc34)CC1)CC2 = 2
• CCCN(CCC)CC1CCc2ccsc2C1 (stereo not given) = 60
• CCCN(Cc1ccccc1)[C@@H]1CCc2c(F)cccc2C1 = 23.8
• Cc1ccc(C(=O)NCN2CCN(c3ccccc3C#N)CC2)cc1 = 377
